conditions: in 1,4-dioxane, 323.15 K
measured-parameter: solubility (mole fraction)
Just the number.

solubility (mole fraction) recorded for this compound, `c1ccc2[nH]cnc2c1` , is 0.0384

----------
details: in n-propyl acetate, 318.15 K
measured-parameter: solubility (mole fraction)
Answer field: number only, no words.

Record summary for `c1ccc2[nH]cnc2c1` : reported solubility (mole fraction) = 0.0189

----------
details: in n-butyl acetate, 308.15 K
measured-parameter: solubility (mole fraction)
I'd appreciate a reply containing only the number, no unit.

Query `c1ccc2[nH]cnc2c1` yields solubility (mole fraction) of 0.0144

----------
settings: in acetonitrile, 323.15 K
measured-parameter: solubility (mole fraction)
Enter the number alone.

For this compound ( `c1ccc2[nH]cnc2c1` ), measured solubility (mole fraction) is 0.0194
